- test_summary: Plasma concentration in spontaneously hypertensive rat model at 10 mg/kg measured after 4 hrs
- Format: ADME, organism-based
- Parameters: dose 10 mg/kg
measured_quantity: concentration at 4 h (µM)
Numbers only, in µM.

Previously resolved entries follow.
[ask] What does the record list as concentration at 4 h for Cn1c(-c2ccccc2C(F)(F)F)nnc1C12CCC(c3nc(-c4ccc(F)cc4)no3)(CC1)CC2 ?
[reply] 13.9

[ask] Quick one: concentration at 4 h for CCS(=O)(=O)CC12CCC(c3nnc(-c4ccccc4C(F)(F)F)n3C)(CC1)CC2 ?
[reply] 27.7

[ask] GET /values?readout=concentration at 4 h&item= Cn1c(-c2ccccc2C(F)(F)F)nnc1C12CCC(c3noc(C(C)(F)F)n3)(CC1)CC2
[reply] 25

Others:
[ask] Look at this compound and give its reported concentration at 4 h. CCS(=O)(=O)CCC12CCC(c3nnc(-c4ccccc4C(F)(F)F)n3C)(CC1)CC2
[reply] 24.2
